Target Of Assay: HLA-B*58:01 (Homo sapiens, UniProt P01889, A329T/C349S/D201E/D98Y/E176V/E187L/E204Q/E69T/G107R/I218V/I90N/K202T/L105A/L119I/N104I/N87E/Q89R/Q94S/R106L/R155S/R180L/R86G/S101N/S121R/S35A/S48A/T118I/V127L/V306I/V36M/Y140S/Y91M)
Type: binding
Details: time points 0-8 h
Reported Metric: O-rate B*58:01 (t1/2) (min)

In [3]: df
Out[3]:
                entry_sequence  output_unit  readout_value
 0    SAWQGDTGI [Rv0288_41–49]          min             36
 1    GITYQAWQA [Rv0288_48–56]          min             12
 2    RDTAEAAKW [Rv0288_86–94]          min            156
 3   QIMYNYPAM [Rv0288_3–11wt]          min             24
 4                   SMAGSSAMI          min             96
 5    EQAALQSAW [Rv0288_35–43]          min             48
 6    QAALQSAWQ [Rv0288_36–44]          min             30
 7    TYQAWQAQW [Rv0288_50–58]          min             60
 8                  AGCQTYKW E          min            120
 9    DTGITYQAW [Rv0288_46–54]          min            138
10    LTKLAAAWG [Rv3875_36-44]          min             72
11    ITYQAWQAQ [Rv0288_49–57]          min             30
12  RAYHSMSST [Rv0288_67–75m1]          min             24
13  RAYHAMSST [Rv0288_67–75wt]          min             12
14                   YAGSLSALL          min             42
15                   AAGGHNAVF          min             42
16    SSTHEANTM [Rv0288_73–81]          min             48

====

Target Of Assay: HLA-A*30:01 (Homo sapiens, UniProt P04439, D140H/D185E/E176W/F33S/G80R/H175R/K168Q/R138E/R41S)
Protocol: off-rate assay (t1/2)
Type: binding
Details: time points 0-8 h
Reported Metric: O-rate A*30:01 (t1/2) (min)

    substance  readout_value
0  KLVANNT RL             42
1   NFVRSSNLK             24
2   AAYHPQQFI             30
3   AMKGDLQSS             30

====

Target Of Assay: HLA-A*02:01 (Homo sapiens, UniProt P04439, D140Y/D185E/D98H/E176V/E277Q/G131W/G231S/I119V/I121R/I166T/I218V/L300P/L318F/N151K/N90K/P208A/P217A/Q86G/Q94H/R138H/R169H/T345S)
Format: binding
Details: percent relative the binding of positive control peptide […]; plate-bound monomer 0.5 µg/ml; duplicated experiments; positive binder >40%
So basically, if Bind A*02:01 comes in under 50% it's Y, and if it's 50% or more it's N.

>>> df
                    substance  assigned_category
 0                  GKAGCQTYK                  Y
 1                  LSMAGSSAM                  N
 2                  PTQQIPKLV                  Y
 3                  GLSIVMPVG                  N
 4                  PAVYLLDGL                  Y
 5                  KAGCQTYKW                  Y
 6                  MGDAGGYKA                  Y
 7  IMYNYPTML [Rv0288_4–12m1]                  N
 8                  GMGPSLIGL                  N
 9                  AAYHPQQFI                  N
10                  PQWLSANRA                  N
11                 NGT HSWEYW                  Y
12                  GANIPAEFL                  Y
13                  FVRSSNLKF                  Y
14                  IPAEFLENF                  Y
15                  PNGTHSWEY                  Y
16                  ELGGANIPA                  Y

====

Target Of Assay: HLA-A*02:01 (Homo sapiens, UniProt P04439, D140Y/D185E/D98H/E176V/E277Q/G131W/G231S/I119V/I121R/I166T/I218V/L300P/L318F/N151K/N90K/P208A/P217A/Q86G/Q94H/R138H/R169H/T345S)
Type: binding
Reported Metric: Bind A*02:01

>>> print(df.to_string())
   entry_sequence  readout_value
0       AMILAAYHP             34
1       YQSGLSIVM            142
2       SLIGLAMGD             57
3       SMAGSSAMI             81

====

Target Of Assay: HLA-B*58:01 (Homo sapiens, UniProt P01889, A329T/C349S/D201E/D98Y/E176V/E187L/E204Q/E69T/G107R/I218V/I90N/K202T/L105A/L119I/N104I/N87E/Q89R/Q94S/R106L/R155S/R180L/R86G/S101N/S121R/S35A/S48A/T118I/V127L/V306I/V36M/Y140S/Y91M)
Type: binding
Reported Metric: Aff B*58:01 (ED50) (M)

>>> df
                     substance  readout_value
 0    TGITYQAWQ [Rv0288_47–55]          4e-06
 1                  GT HSWEYWG          3e-07
 2    ITYQAWQAQ [Rv0288_49–57]          2e-07
 3    QAWQAQWNQ [Rv0288_52–60]          4e-06
 4    RDTAEAAKW [Rv0288_86–94]          5e-06
 5   QIMYNYPAM [Rv0288_3–11wt]          1e-05
 6    YQAWQAQWN [Rv0288_51–59]          2e-06
 7                   MAGSSAMIL          9e-09
 8                   MGRDIKVQF          3e-07
 9    TYQAWQAQW [Rv0288_50–58]          1e-07
10  RAYHAMSST [Rv0288_67–75wt]          1e-05
11   IMYNYPTML [Rv0288_4–12m1]         0.0003

====

Target Of Assay: HLA-C*07:01 (Homo sapiens, UniProt P10321, K90N/S123Y)
Protocol: affinity assay (ED50)
Format: binding
Items are presented alongside their recorded Aff C*07:01 (ED50).
Reported Metric: Aff C*07:01 (ED50) (M)

>>> print(df.to_string())
                    substance  output_unit  readout_value
0                   ANNTRLWVY            M          5e-09
1                   NNSPAVYLL            M          2e-07
2     IMYNYPAML [Rv0288_4–12]            M          2e-07
3     YNYPAMLGH [Rv0288_6–14]            M          7e-06
4  RAYHAMSST [Rv0288_67–75wt]            M          1e-05
